The origin of these recorded values is the array DNA melting data of Ke et al. (doi:10.1101/2024.01.08.574731).

# test summary: melting temperature; fluorescence melt of hairpins on a sequencing array, two-state fit, raised by 9.35 °C to match UV melts
# reported conditions: sodium 0.088 M
Below, each entry is listed with its recorded Tm.
Reply numerically in °C, unit not repeated.

// known answers, use as guide
Entry GTGCCCCGAAAGGGACAC (((.(((....))).))) ; Tm = 62.5

Entry GTTGGCGAAAGCCCAAC ((((((....))).))) ; Tm = 50.7

Entry GTGTCAGGAAACCAACAC ((((..(....)..)))) ; Tm = 28

Entry GACAACCGAAAGGTGGTC (((.(((....))).))) ; Tm = 59.2

Entry GATCTAAGAATAGATC ((((((....)))))) ; Tm = 34

Entry GATCGGAGTCCCGATC ((((((....)))))) ; Tm = 55.3

New cases:
Entry GCTTCCGAAAGGAGGAGC ((((((....)))..))) ; Tm = 39.1

Entry GGCTTCCCGAAAGGGGCC (((..(((....)))))) ; Tm = 48.2

Entry GATCAAAGATTGATC ((((((...)))))) ; Tm = 36.1

Entry GGCGGCGAAAGCCCTGCC ((((((....)))..))) ; Tm = 53.6

Entry GCGCACGGAAACGCACGC (((..((....))..))) ; Tm = 42.2

Entry GCGTATGGAAACATATGC ((.((((....)))).)) ; Tm = 47.8

Entry GCTTTATCGAAAGATAGC (((..(((....)))))) ; Tm = 31.6

Entry GGAGCCGAAAGGCTTCC ((((((....))).))) ; Tm = 60.3

Entry GCTCTCGAAAGAGTCAGC ((((((....)))..))) ; Tm = 32.9

Entry GAGCGGGGAAACCCGCCC (.(((((....))))).) ; Tm = 45.1

Entry GAATACGAAAGTATTTTC ((((((....)))..))) ; Tm = 36.9

Entry GCCCAGGGAAACCCAGGC (((..((....))..))) ; Tm = 44.4

Entry GTACAAGGAAACTTGTGC (.(((((....))))).) ; Tm = 45.4

Entry GTCAGCGGAAACGCTAAC ((.((((....)))).)) ; Tm = 37.4

Entry GGGTGCGAAAGCAGGCCC ((((((....)))..))) ; Tm = 52.9

Entry GAGCGCGAAAGCGTCTC ((((((....))).))) ; Tm = 61.5

###

Below, each entry is listed with its recorded folding enthalpy.
# test summary: folding enthalpy; higher = less favourable; fluorescence melt of hairpins on a sequencing array, two-state fit
# reported conditions: sodium 0.088 M
Include the unit after the number when you answer.

Entry GACTGGGGAAACTCAGTC (((((.(....).))))) ; folding enthalpy = -40.5 kcal/mol

Entry ACAACGAAAGTTGT (((((....))))) ; folding enthalpy = -21.6 kcal/mol

Entry GATCAGTAAGCTGATC ((((((....)))))) ; folding enthalpy = -41.3 kcal/mol

Entry GCACATCGAAAGATTGC (((.(((....)))))) ; folding enthalpy = -27.9 kcal/mol

###

Below, each entry is listed with its recorded Tm.
# test summary: melting temperature; fluorescence melt of hairpins on a sequencing array, two-state fit, raised by 9.35 °C to match UV melts
# reported conditions: sodium 0.088 M
Reply numerically in °C, unit not repeated.

// known answers, use as guide
Entry GATCCGCCTTCGGATC ((((((....)))))) ; Tm = 55.9

Entry GAGTTCGGAAACGAGTTC ((..(((....)))..)) ; Tm = 30.7

Entry GCCACGGCGAAAGCCGGC (((..(((....)))))) ; Tm = 49.1

Entry GTAGCGCGAAAGCGGTAC (((.(((....))).))) ; Tm = 68.8

Entry GGTTCACGAAAGTGTACC (((.(((....))).))) ; Tm = 52.4

New cases:
Entry GTGGTGAAAACCAC (((((....))))) ; Tm = 58

Entry GGTGAAGGAAACCTCACC (((((.(....).))))) ; Tm = 46.2

Entry GGCCACGAAAGTGCCGCC ((((((....)))..))) ; Tm = 59.8

Entry GGGATACGAAAGTAGCCC (((.(((....))).))) ; Tm = 63.1

Entry GATCACTCAAGTGATC ((((((....)))))) ; Tm = 57

Entry GCCCACGGAAACGCAGGC (((..((....))..))) ; Tm = 39.6

Entry GCTGCGCGAAAGCTAAGC (((..((....))..))) ; Tm = 44

Entry GAGCGGAAACGCTC (((((....))))) ; Tm = 69.1

###

Below, each entry is listed with its recorded Tm.
# test summary: melting temperature; fluorescence melt of hairpins on a sequencing array, two-state fit, raised by 9.35 °C to match UV melts
# reported conditions: sodium 0.088 M
Reply numerically in °C, unit not repeated.

// known answers, use as guide
Entry GAGCAGGGAAACCCGCTC ((((.((....)).)))) ; Tm = 51.4

Entry GGTACGACGAAAGTCACC (((..(((....)))))) ; Tm = 32.9

Entry GCGTGATGACGC ((((....)))) ; Tm = 52.8

New cases:
Entry CGACCGGAAACGGGATCG ((((((....)))..))) ; Tm = 38.8

Entry GAACGGCCGAAAGGCTTC (((..(((....)))))) ; Tm = 21.1

Entry GTCATCTCGAAAGAGGAC (((..(((....)))))) ; Tm = 39.4

Entry GCGAAGGGTCGC ((((....)))) ; Tm = 48.2

Entry GAATACGAAAGTATATTC ((((((....)))..))) ; Tm = 26.8

Entry GCTCACGAAAGTGAAAGC ((((((....)))..))) ; Tm = 48.9

###

# test summary: folding enthalpy; higher = less favourable; fluorescence melt of hairpins on a sequencing array, two-state fit
# reported conditions: sodium 0.088 M
Below, each entry is listed with its recorded folding enthalpy.
Reply numerically in kcal/mol, unit not repeated.

// known answers, use as guide
Entry GCGTTAATACGC ((((....)))) ; folding enthalpy = -21.1

Entry GTGTTCCGAAAGGACAC (((.(((....)))))) ; folding enthalpy = -32.8

Entry GGTCGTCCGAAAGGAACC (((..(((....)))))) ; folding enthalpy = -9.14

New cases:
Entry CGATCGGAAACGAGGTCG ((((((....)))..))) ; folding enthalpy = -13.5

Entry GTGGCCGAAAGGCTACAC ((((((....)))..))) ; folding enthalpy = -13.5

Entry GCTAAGCGAAAGCTCCGC ((..(((....)))..)) ; folding enthalpy = -10.6

###

# test summary: folding enthalpy; higher = less favourable; fluorescence melt of hairpins on a sequencing array, two-state fit
# reported conditions: sodium 0.088 M
assay metric: folding enthalpy (kcal/mol)
Reply numerically in kcal/mol, unit not repeated.

Entry GCGTCCGAAAGGATCCGC ((((((....)))..))) ; folding enthalpy = -21.2

Entry CGACCGGAAACGGTATCG ((((((....)))..))) ; folding enthalpy = -13.6

Entry GCCATGCGAAAGCGTAGC ((.(.((....)).).)) ; folding enthalpy = -11.2

Entry GTCCCGGGAAACCGGGGC (.(((((....))))).) ; folding enthalpy = -19

Entry GCTTGCGAAAGCAAAAGC ((((((....)))..))) ; folding enthalpy = -17.8

Entry GTTGTACGAAAGTATAAC (((.(((....))).))) ; folding enthalpy = -26.9

Entry GCGACCGCGAAAGCGCGC (((..(((....)))))) ; folding enthalpy = -15.4

Entry CGATGCGGAAACGCCTCG (((.(((....))).))) ; folding enthalpy = -40.4

Entry GGGTGCGAAAGCACACCC ((((((....)))..))) ; folding enthalpy = -10.4

Entry GGGTCTGGAAACAGGCTC (.(.(((....))).).) ; folding enthalpy = -23.2

New cases:
Entry GGTTACGGAAACGTAATC (.(((((....))))).) ; folding enthalpy = -30.5

Entry GAGTAAGGAAACCTACTC (((((.(....).))))) ; folding enthalpy = -26.6

###

# test summary: folding enthalpy; higher = less favourable; fluorescence melt of hairpins on a sequencing array, two-state fit
# reported conditions: sodium 0.088 M
Record Satisfied whenever folding enthalpy is at -30 kcal/mol or higher; record Not satisfied when lower.

**Q:** Kindly determine if folding enthalpy recorded for GAGCTGGGAAACCAACTC (((.(((....))).))) is above or exactly -30 kcal/mol.
**A:** Not satisfied

**Q:** Kindly determine if folding enthalpy recorded for GTCTGCCCGAAAGGGGAC (((..(((....)))))) is above or exactly -30 kcal/mol.
**A:** Satisfied

**Q:** Kindly determine if folding enthalpy recorded for GAGCTTCCGAAAGGACTC (((..(((....)))))) is above or exactly -30 kcal/mol.
**A:** Satisfied

**Q:** Kindly determine if folding enthalpy recorded for GATCCGCAGCCGGATC ((((((....)))))) is above or exactly -30 kcal/mol.
**A:** Not satisfied

Next sequence, please.
**Q:** Kindly determine if folding enthalpy recorded for GGTATGCGAAAGCACACC (((.(((....))).))) is above or exactly -30 kcal/mol.
**A:** Satisfied
